Target: Adenosine receptor A3 (Homo sapiens)
Sequence (P0DMS8 whole entry): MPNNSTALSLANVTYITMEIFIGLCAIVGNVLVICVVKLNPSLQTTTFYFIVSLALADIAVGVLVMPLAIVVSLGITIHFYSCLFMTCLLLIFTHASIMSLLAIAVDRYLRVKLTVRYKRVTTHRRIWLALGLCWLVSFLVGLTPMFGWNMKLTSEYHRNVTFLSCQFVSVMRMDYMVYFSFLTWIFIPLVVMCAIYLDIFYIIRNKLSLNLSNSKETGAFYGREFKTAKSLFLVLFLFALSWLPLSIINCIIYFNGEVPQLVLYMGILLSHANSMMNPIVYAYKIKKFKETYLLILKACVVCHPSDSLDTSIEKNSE
Experiment: Displacement of [3H]-HEMADO from human adenosine A3 receptor expressed in CHO cells by radioligand competition analysis
Type: cell-based
Endpoint name: Ki (nM)

Would you please look over these solved cases?
Compound	Ki [nM]
Cn1cc2c(nc(N3CCN(C(=O)OC(C)(C)C)CC3)n3nc(-c4ccco4)nc23)n1	737
Cn1cc2c(nc(NN)n3nc(-c4ccco4)nc23)n1	174
Cn1cc2c(nc(NCCCOCCOCCOCCCNC(=O)OC(C)(C)C)n3nc(-c4ccco4)nc23)n1	264

A. Cn1cc2c(nc(NCCN)n3nc(-c4ccco4)nc23)n1
B. Cn1cc2c(nc(NCC3CCC(CNC(=O)OC(C)(C)C)CC3)n3nc(-c4ccco4)nc23)n1 (stereo not drawn)
C. Cn1cc2c(nc(NCCCCNC(=O)OC(C)(C)C)n3nc(-c4ccco4)nc23)n1
D. Cn1cc2c(nc(NCCOCCOCCNC(=O)OC(C)(C)C)n3nc(-c4ccco4)nc23)n1
E. Cn1cc2c(nc(NCCCCN)n3nc(-c4ccco4)nc23)n1
Ranking field: Ki; order: falling. Hello, could you send the labels back in the order asked? Thank you. E, A, B, D, C

Just for reference, ChEMBL document CHEMBL4373634 is where these values come from.
